Measured EC50, listed per entry for reference.
Molecular target: Heat shock factor protein 1 (Mus musculus, UniProt P38532)
Sequence (P38532 whole entry): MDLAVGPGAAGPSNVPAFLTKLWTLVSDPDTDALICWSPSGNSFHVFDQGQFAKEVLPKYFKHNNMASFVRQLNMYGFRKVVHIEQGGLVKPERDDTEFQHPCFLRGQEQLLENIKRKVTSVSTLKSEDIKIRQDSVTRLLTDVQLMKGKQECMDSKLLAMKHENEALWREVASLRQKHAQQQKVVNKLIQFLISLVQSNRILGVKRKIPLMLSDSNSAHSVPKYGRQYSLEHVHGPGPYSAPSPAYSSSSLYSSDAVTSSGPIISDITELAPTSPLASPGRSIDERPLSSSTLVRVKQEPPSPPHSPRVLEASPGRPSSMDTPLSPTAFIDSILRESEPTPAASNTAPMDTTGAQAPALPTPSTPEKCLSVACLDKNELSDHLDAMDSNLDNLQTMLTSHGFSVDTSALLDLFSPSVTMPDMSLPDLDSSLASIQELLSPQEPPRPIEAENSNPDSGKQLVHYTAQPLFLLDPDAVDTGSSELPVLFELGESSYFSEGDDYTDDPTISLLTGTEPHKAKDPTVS
Experiment: decrease of HSF1-responsive luciferase luminescence – cell-based, NIH3T3, dose retest, confirmation (AID 2382);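 note: NIH3T3 fibroblasts with HSF1-driven luciferase reporter stressed by proteasome inhibitor MG132; luminescence from HSF1-driven luciferase expression after 8 hours of MG132 stress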
Assay type: functional
Active and inactive are the calls of the source. Cut-off read from the data, not from the text of the source: actives have a measured EC50 and inactives only a lower limit.

INSERT INTO results (molecule, measured) VALUES
  ('CC(C)(C)OC(=O)N1Cc2ccccc2C[C@H]1C(=O)NCC(=O)Nc1ccc2c(c1)OCCO2', '0.755 µM (active)'),
  ('CCN1CCN(C(c2cccnc2)c2cc(Cl)c3cccnc3c2O)CC1 (stereo not given)', '> 195 µM (not active)'),
  ('O=C1NC(=O)N(Cc2ccccc2)C(=O)/C1=C/NCCN1CCNCC1', '> 195 µM (not active)'),
  ('Cc1ccc(OCc2nnc(SC(C)C(=O)O)n2-c2ccccc2)cc1 (stereo not given)', '> 195 µM (not active)');

Now let's try a different one.
Query block: Looking for the measured EC50 of CCOC(=O)C1CCN(c2c(NCc3ccc(C(=O)Nc4ccc(C)cc4)cc3)c(=O)c2=O)CC1 , can you help?
Result block: > 195 µM (not active)
